Molecular target: ~100 representative kinases (Homo sapiens, UniProt P21675)
Construct: Recombinant protein kinase domains with a concentration of 2 μM
Sequence (P21675 whole entry, the tested form may be a part): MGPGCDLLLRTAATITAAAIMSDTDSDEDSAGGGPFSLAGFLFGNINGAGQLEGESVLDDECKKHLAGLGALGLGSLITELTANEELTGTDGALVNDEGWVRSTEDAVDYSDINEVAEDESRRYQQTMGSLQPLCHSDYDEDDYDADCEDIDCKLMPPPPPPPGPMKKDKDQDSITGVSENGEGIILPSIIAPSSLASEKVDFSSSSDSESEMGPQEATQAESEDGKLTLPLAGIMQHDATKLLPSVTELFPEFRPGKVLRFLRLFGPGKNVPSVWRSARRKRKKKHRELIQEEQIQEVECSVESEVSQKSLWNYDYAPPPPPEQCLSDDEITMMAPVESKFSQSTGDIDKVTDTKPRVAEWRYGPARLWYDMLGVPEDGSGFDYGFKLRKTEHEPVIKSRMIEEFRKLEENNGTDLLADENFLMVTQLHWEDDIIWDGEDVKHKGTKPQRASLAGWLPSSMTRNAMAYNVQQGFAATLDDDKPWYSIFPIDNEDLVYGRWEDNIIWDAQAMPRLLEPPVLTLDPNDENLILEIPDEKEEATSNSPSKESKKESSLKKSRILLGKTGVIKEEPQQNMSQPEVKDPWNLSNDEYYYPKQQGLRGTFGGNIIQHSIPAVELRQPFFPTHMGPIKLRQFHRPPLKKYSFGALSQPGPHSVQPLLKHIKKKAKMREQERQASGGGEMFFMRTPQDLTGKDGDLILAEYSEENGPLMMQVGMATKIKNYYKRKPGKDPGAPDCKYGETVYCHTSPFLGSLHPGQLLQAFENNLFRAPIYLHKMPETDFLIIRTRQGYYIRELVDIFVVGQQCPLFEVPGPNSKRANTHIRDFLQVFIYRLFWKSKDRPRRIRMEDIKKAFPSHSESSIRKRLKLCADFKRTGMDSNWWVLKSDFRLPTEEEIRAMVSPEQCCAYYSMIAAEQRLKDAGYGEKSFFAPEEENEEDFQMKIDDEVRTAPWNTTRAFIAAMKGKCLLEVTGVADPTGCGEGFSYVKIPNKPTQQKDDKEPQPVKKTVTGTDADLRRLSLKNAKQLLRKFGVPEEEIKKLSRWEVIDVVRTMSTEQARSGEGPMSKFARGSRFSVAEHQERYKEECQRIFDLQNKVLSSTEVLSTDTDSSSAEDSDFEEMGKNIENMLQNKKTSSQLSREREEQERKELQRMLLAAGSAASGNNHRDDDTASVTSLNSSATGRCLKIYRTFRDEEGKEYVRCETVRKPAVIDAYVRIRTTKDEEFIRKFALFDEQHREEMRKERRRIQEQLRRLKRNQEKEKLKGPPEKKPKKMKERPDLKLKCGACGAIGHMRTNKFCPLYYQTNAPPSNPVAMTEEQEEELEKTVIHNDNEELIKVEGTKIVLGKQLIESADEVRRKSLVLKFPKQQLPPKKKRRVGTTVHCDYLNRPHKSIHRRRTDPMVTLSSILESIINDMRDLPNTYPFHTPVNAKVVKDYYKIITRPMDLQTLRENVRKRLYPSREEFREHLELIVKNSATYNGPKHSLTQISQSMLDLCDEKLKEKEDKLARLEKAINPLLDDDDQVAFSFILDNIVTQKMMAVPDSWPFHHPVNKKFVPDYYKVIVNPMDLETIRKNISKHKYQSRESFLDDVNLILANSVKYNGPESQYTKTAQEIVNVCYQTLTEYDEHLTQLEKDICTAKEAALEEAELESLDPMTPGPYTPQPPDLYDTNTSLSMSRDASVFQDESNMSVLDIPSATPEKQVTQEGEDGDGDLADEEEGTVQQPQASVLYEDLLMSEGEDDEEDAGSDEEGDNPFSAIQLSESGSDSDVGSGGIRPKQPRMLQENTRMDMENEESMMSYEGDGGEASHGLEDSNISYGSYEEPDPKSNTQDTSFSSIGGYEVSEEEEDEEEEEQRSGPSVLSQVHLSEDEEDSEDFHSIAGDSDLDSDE
Experiment: DSF 100 kinase selectivity screen;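 note: compound tested at 20 µM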
Format: binding
Conditions: Protein TAF1; DSF; average of three replicates
recordedEndpoint: dTm (K)

Cc1cc(NC(=O)C2(C(=O)Nc3cccc(-c4c[nH]c5ncnc(N6CCOCC6)c45)c3)CC2)ccc1F | 0.99
Cc1ccc(C(=O)Nc2ccc(CN3CCN(C)CC3)c(C(F)(F)F)c2)cc1C#Cc1c[nH]c2ncnc(N3CCOCC3)c12 | 0.36
COc1cc(NC(=O)C2(C(=O)Nc3cccc(-c4c[nH]c5ncnc(N6CCOCC6)c45)c3)CC2)ccc1F | 0.37
O=C(Nc1cccc(-c2c[nH]c3ncnc(N4CCOCC4)c23)c1)C1(C(=O)Nc2ccc(F)c(Cl)c2)CC1 | 1.40

a = O=C(Nc1cccc(-c2c[nH]c3ncnc(N4CCOCC4)c23)c1)C1(C(=O)Nc2ccc(F)c(F)c2)CC1
b = COc1ccc(NC(=O)C2(C(=O)Nc3cccc(-c4c[nH]c5ncnc(N6CCOCC6)c45)c3)CC2)cc1
c = CC(=O)N1CCN(c2nc(Cl)nc3[nH]cc(-c4cccc(NC(=O)Nc5cc(C(C)(C)C)nn5-c5ccc(C)cc5)c4)c23)CC1
Parameters: sort_field (dTm), sort_dir (desc). State the ranking by listing the labels in the requested order.
a, b, c
